AC50 values for the compounds below.
- study_system: Cytochrome P450 1A2 (Homo sapiens);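 also: PubChem cytochrome P450 panel assay, CYP1A2 panel member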
- Sequence (P05177 whole entry): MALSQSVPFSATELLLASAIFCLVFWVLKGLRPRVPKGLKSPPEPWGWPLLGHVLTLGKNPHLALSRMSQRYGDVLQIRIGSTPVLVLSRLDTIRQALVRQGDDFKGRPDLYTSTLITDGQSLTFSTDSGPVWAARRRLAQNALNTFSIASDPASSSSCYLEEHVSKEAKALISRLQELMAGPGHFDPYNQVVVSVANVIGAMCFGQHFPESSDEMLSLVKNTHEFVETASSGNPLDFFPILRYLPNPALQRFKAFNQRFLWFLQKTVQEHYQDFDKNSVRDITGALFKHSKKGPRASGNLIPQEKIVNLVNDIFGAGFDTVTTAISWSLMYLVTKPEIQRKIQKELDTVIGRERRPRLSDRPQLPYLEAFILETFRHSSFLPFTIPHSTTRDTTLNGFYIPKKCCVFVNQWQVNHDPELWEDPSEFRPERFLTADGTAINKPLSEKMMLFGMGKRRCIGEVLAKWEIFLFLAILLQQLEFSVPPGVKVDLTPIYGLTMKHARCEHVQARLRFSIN

# example entries with known answers
compound	AC50
N#Cc1cccc(NC(=O)N2CC3(CCN(C(=O)c4cnccn4)CC3)C2)c1	39.8 µM (inconclusive)
C[C@@H]1CCc2cc(F)cc3c(=O)c(C(=O)O)cn1c23	12.6 µM (inconclusive)
Cn1cccc1C(=O)N1CCC2(CC1)CCN(c1ccccn1)CC2	15.8 µM (inconclusive)
CCC(CC)C(=O)NC1CCSC1=O (stereo not drawn)	39.8 µM (inconclusive)
COC(=O)c1cc(NS(=O)(=O)c2ccc(N3CCCCC3)c([N+](=O)[O-])c2)cc(C(=O)OC)c1	15.8 µM (inconclusive)

Consider the compound shown here: Cc1ccc(S(=O)(=O)CCC(=O)Nc2nc3c(s2)CCCC3)cc1 What is its recorded AC50? 15.8 µM (inconclusive)

Likewise for CCCCn1cnc2c(SC)ncnc21 ? 3.16 µM (inconclusive)

Likewise for CCCn1nnc(NC(=O)Cc2ccccc2)n1 ? 28.2 µM (inconclusive)

Likewise for CCC(C)C(NS(=O)(=O)c1ccc(C)cc1)C(=O)Oc1ccc2c3c(c(=O)oc2c1)CCC3 (stereo not drawn) ? 11.2 µM (inconclusive)

Likewise for COc1ccccc1CC(=O)O/N=C(\N)c1cccc([N+](=O)[O-])c1 ? 25.1 µM (inconclusive)

Likewise for CCOc1ccc(/C=N/Nc2nc(N3CCCC3)nc(N3CCCC3)n2)cc1OC ? 39.8 µM (inconclusive)

Likewise for O=C(CCCN1CCC2(CC1)C(=O)N(Cc1cccc(F)c1)CN2c1ccccc1)c1ccc(F)cc1 ? 39.8 µM (inconclusive)

Likewise for Fc1ccc(Nc2ncncc2-c2ccccc2C(F)(F)F)cc1 ? 20 µM (inconclusive)
